target.under.test: Melanocortin receptor 3 (Homo sapiens, UniProt P41968)
Sequence (P41968 whole entry): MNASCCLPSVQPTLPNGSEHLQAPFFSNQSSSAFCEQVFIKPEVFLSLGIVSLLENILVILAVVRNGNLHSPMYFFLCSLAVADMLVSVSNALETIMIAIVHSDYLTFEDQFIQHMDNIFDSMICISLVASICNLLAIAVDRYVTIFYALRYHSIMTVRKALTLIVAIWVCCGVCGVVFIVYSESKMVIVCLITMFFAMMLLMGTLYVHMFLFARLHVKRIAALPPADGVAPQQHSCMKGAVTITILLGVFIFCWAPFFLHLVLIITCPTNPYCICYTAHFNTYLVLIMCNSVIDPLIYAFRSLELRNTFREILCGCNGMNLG
test.name: Inhibitory activity against hMC3R transfected in HEK293 cells
pIC50: −log10 of the molar value.

| input.smiles | pIC50 |
| --- | --- |
| CCCC[C@@H]1NC(=O)CC[C@@H](C(N)=O)NC(=O)[C@H](Cc2c[nH]c3ccccc23)NC(=O)[C@H](CCCN=C(N)N)NC(=O)[C@@H](Cc2ccc3ccccc3c2)NC(=O)[C@H](CCCN=C(N)N)NC1=O | 8.59 |
| CCCC[C@@H]1NC(=O)CC[C@@H](C(N)=O)NC(=O)[C@H](Cc2c[nH]c3ccccc23)NC(=O)[C@H](CCCN=C(N)N)NC(=O)[C@@H](Cc2ccc3ccccc3c2)NC(=O)[C@H](CCC(N)=O)NC1=O | 8.85 |
| CCCC[C@@H]1NC(=O)CC[C@@H](C(N)=O)NC(=O)[C@H](Cc2c[nH]c3ccccc23)NC(=O)[C@H](CCCN=C(N)N)NC(=O)[C@@H](Cc2ccc3ccccc3c2)NC(=O)[C@H](Cc2cnc[nH]2)NC1=O | 7.92 |
| CCCC[C@@H]1NC(=O)CC[C@@H](C(N)=O)NC(=O)[C@H](Cc2c[nH]c3ccccc23)NC(=O)[C@H](CCCN=C(N)N)NC(=O)[C@@H](Cc2ccccc2)NC(=O)[C@H](CCC(=O)O)NC1=O | 5.92 |
| CCCC[C@@H]1NC(=O)CC[C@@H](C(N)=O)NC(=O)[C@H](Cc2c[nH]c3ccccc23)NC(=O)[C@H](CCCN=C(N)N)NC(=O)[C@@H](Cc2ccccc2)NC(=O)[C@H](CCCC)NC1=O | 6.60 |
| CCCC[C@@H]1NC(=O)CC[C@@H](C(N)=O)NC(=O)[C@H](Cc2c[nH]c3ccccc23)NC(=O)[C@H](CCCN=C(N)N)NC(=O)[C@@H](Cc2ccc3ccccc3c2)NC(=O)[C@H](C(C)C)NC1=O | 8.77 |

###

target.under.test: UniProt:Q01726
Sequence (Q01726 whole entry): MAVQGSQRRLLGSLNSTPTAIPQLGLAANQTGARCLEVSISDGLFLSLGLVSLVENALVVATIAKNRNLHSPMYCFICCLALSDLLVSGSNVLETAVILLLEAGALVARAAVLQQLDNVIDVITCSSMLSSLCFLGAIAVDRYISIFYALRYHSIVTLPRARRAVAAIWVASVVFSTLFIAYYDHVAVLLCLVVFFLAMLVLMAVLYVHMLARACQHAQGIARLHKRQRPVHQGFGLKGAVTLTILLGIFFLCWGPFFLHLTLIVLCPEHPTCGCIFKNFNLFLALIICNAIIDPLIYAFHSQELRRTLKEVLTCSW
test.name: Inhibitory activity against hMC1R transfected in HEK293 cells
Some molecules, each annotated with its measured IC50.
measurement.name: IC50

| input.smiles | measurement.name | result |
| --- | --- | --- |
| CCCC[C@@H]1NC(=O)CC[C@@H](C(N)=O)NC(=O)[C@H](Cc2c[nH]c3ccccc23)NC(=O)[C@H](CCCN=C(N)N)NC(=O)[C@@H](Cc2ccccc2)NC(=O)[C@H](Cc2c[nH]cn2)NC1=O | IC50 | > 10 µM |
| CCCC[C@@H]1NC(=O)CC[C@@H](C(N)=O)NC(=O)[C@H](Cc2c[nH]c3ccccc23)NC(=O)[C@H](CCCN=C(N)N)NC(=O)[C@@H](Cc2ccc3ccccc3c2)NC(=O)[C@H](Cc2cnc[nH]2)NC1=O | IC50 | > 10 µM |
| CCCC[C@@H]1NC(=O)CC[C@@H](C(N)=O)NC(=O)[C@H](Cc2c[nH]c3ccccc23)NC(=O)[C@H](CCCN=C(N)N)NC(=O)[C@@H](Cc2ccccc2)NC(=O)[C@H](C(C)C)NC1=O | IC50 | > 10 µM |
| CCCC[C@@H]1NC(=O)CC[C@@H](C(N)=O)NC(=O)[C@H](Cc2c[nH]c3ccccc23)NC(=O)[C@H](CCCN=C(N)N)NC(=O)[C@@H](Cc2ccc3ccccc3c2)NC(=O)[C@H](CCCN=C(N)N)NC1=O | IC50 | 1.5 µM |
| CCCC[C@@H]1NC(=O)CC[C@@H](C(N)=O)NC(=O)[C@H](Cc2c[nH]c3ccccc23)NC(=O)[C@H](CCCN=C(N)N)NC(=O)[C@@H](Cc2ccccc2)NC(=O)[C@@H]2CCCN2C1=O | IC50 | > 10 µM |
| CCCC[C@@H]1NC(=O)CC[C@@H](C(N)=O)NC(=O)[C@H](Cc2c[nH]c3ccccc23)NC(=O)[C@H](CCCN=C(N)N)NC(=O)[C@@H](Cc2ccccc2)NC(=O)[C@H](CCC(=O)O)NC1=O | IC50 | > 10 µM |
| CCCC[C@@H]1NC(=O)CC[C@@H](C(N)=O)NC(=O)[C@H](Cc2c[nH]c3ccccc23)NC(=O)[C@H](CCCN=C(N)N)NC(=O)[C@@H](Cc2ccc3ccccc3c2)NC(=O)[C@H](CC(=O)O)NC1=O | IC50 | > 10 µM |
| CCCC[C@@H]1NC(=O)CC[C@@H](C(N)=O)NC(=O)[C@H](Cc2c[nH]c3ccccc23)NC(=O)[C@H](CCCN=C(N)N)NC(=O)[C@@H](Cc2ccc3ccccc3c2)NC(=O)[C@H](C(C)C)NC1=O | IC50 | 4 µM |
| CCCC[C@@H]1NC(=O)CC[C@@H](C(N)=O)NC(=O)[C@H](Cc2c[nH]c3ccccc23)NC(=O)[C@H](CCCN=C(N)N)NC(=O)[C@@H](Cc2ccccc2)NC(=O)[C@H](CC(=O)O)NC1=O | IC50 | > 10 µM |
| CCCC[C@@H]1NC(=O)CC[C@@H](C(N)=O)NC(=O)[C@H](Cc2c[nH]c3ccccc23)NC(=O)[C@H](CCCN=C(N)N)NC(=O)[C@@H](Cc2ccc3ccccc3c2)NC(=O)[C@H](CCC(N)=O)NC1=O | IC50 | 1 µM |

###

Some compounds, each annotated with its measured pEC50.
target.under.test: Melanocortin receptor 5 (Homo sapiens, UniProt P33032)
Sequence (P33032 whole entry): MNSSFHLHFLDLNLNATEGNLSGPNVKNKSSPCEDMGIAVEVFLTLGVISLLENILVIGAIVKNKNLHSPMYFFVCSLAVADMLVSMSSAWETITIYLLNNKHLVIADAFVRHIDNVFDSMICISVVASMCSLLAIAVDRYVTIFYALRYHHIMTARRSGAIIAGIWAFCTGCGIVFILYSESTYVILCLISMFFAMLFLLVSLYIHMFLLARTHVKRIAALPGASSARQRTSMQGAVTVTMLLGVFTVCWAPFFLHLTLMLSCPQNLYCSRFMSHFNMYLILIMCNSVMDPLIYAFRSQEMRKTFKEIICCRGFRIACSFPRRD
test.name: Activity against hMC5R transfected in HEK293 cells by intracellular cAMP accumulation
pEC50: −log10 of the molar value.

| input.smiles | pEC50 |
| --- | --- |
| CCCC[C@@H]1NC(=O)CC[C@@H](C(N)=O)NC(=O)[C@H](Cc2c[nH]c3ccccc23)NC(=O)[C@H](CCCN=C(N)N)NC(=O)[C@@H](Cc2ccccc2)NC(=O)[C@H](CCC(N)=O)NC1=O | 6.52 |
| CCCC[C@@H]1NC(=O)CC[C@@H](C(N)=O)NC(=O)[C@H](Cc2c[nH]c3ccccc23)NC(=O)[C@H](CCCN=C(N)N)NC(=O)[C@@H](Cc2ccc3ccccc3c2)NC(=O)[C@H](CC(=O)O)NC1=O | < 5.00 |
| CCCC[C@@H]1NC(=O)CC[C@@H](C(N)=O)NC(=O)[C@H](Cc2c[nH]c3ccccc23)NC(=O)[C@H](CCCN=C(N)N)NC(=O)[C@@H](Cc2ccc3ccccc3c2)NC(=O)[C@@H]2CCCN2C1=O | < 5.00 |

###

target.under.test: Melanocortin receptor 3 (Homo sapiens)
test.name: Activity against hMC3R transfected in HEK293 cells by intracellular cAMP accumulation
Type: functional, cell-based
Label rule, in plain words: %max of 7% and up is met, under 7% is not met.

| input.smiles | cat |
| --- | --- |
| CCCC[C@@H]1NC(=O)CC[C@@H](C(N)=O)NC(=O)[C@H](Cc2c[nH]c3ccccc23)NC(=O)[C@H](CCCN=C(N)N)NC(=O)[C@@H](Cc2ccccc2)NC(=O)[C@@H](CCCN=C(N)N)NC1=O | met |
| CCCC[C@@H]1NC(=O)CC[C@@H](C(N)=O)NC(=O)[C@H](Cc2c[nH]c3ccccc23)NC(=O)[C@H](CCCN=C(N)N)NC(=O)[C@@H](Cc2ccccc2)NC(=O)[C@H](Cc2c[nH]cn2)NC1=O | met |
| CCCC[C@@H]1NC(=O)CC[C@@H](C(N)=O)NC(=O)[C@H](Cc2c[nH]c3ccccc23)NC(=O)[C@H](CCCN=C(N)N)NC(=O)[C@@H](Cc2ccccc2)NC(=O)[C@H]2CCCN2C1=O | not met |
| CCCC[C@@H]1NC(=O)CC[C@@H](C(N)=O)NC(=O)[C@H](Cc2c[nH]c3ccccc23)NC(=O)[C@H](CCCN=C(N)N)NC(=O)[C@@H](Cc2ccc3ccccc3c2)NC(=O)[C@@H](CC(=O)O)NC1=O | not met |
| CCCC[C@@H]1NC(=O)CC[C@@H](C(N)=O)NC(=O)[C@H](Cc2c[nH]c3ccccc23)NC(=O)[C@H](CCCN=C(N)N)NC(=O)[C@@H](Cc2ccccc2)NC(=O)[C@H](CCCC)NC1=O | met |
| CCCC[C@@H]1NC(=O)CC[C@@H](C(N)=O)NC(=O)[C@H](Cc2c[nH]c3ccccc23)NC(=O)[C@H](CCCN=C(N)N)NC(=O)[C@@H](Cc2ccc3ccccc3c2)NC(=O)[C@H](Cc2c[nH]cn2)NC1=O | not met |
| CCCC[C@@H]1NC(=O)CC[C@@H](C(N)=O)NC(=O)[C@H](Cc2c[nH]c3ccccc23)NC(=O)[C@H](CCCN=C(N)N)NC(=O)[C@@H](Cc2ccc3ccccc3c2)NC(=O)[C@H](CCCC)NC1=O | not met |

###

target.under.test: Melanocortin receptor 3 (Homo sapiens, UniProt P41968)
test.name: Inhibitory activity against hMC3R transfected in HEK293 cells
Note to self: IC50 under 100 nM means true, ties and anything higher get false.

| input.smiles | cat |
| --- | --- |
| CCCC[C@@H]1NC(=O)CC[C@@H](C(N)=O)NC(=O)[C@H](Cc2c[nH]c3ccccc23)NC(=O)[C@H](CCCN=C(N)N)NC(=O)[C@@H](Cc2ccccc2)NC(=O)[C@@H]2CCCN2C1=O | false |
| CCCC[C@@H]1NC(=O)CC[C@@H](C(N)=O)NC(=O)[C@H](Cc2c[nH]c3ccccc23)NC(=O)[C@H](CCCN=C(N)N)NC(=O)[C@@H](Cc2ccccc2)NC(=O)[C@H](C(C)C)NC1=O | false |
| CCCC[C@@H]1NC(=O)CC[C@@H](C(N)=O)NC(=O)[C@H](Cc2c[nH]c3ccccc23)NC(=O)[C@H](CCCN=C(N)N)NC(=O)[C@@H](Cc2ccc3ccccc3c2)NC(=O)[C@H](CC(=O)O)NC1=O | false |
| CCCC[C@@H]1NC(=O)CC[C@@H](C(N)=O)NC(=O)[C@H](Cc2c[nH]c3ccccc23)NC(=O)[C@H](CCCN=C(N)N)NC(=O)[C@@H](Cc2ccc3ccccc3c2)NC(=O)[C@@H]2CCCN2C1=O | true |
| CCCC[C@@H]1NC(=O)CC[C@@H](C(N)=O)NC(=O)[C@H](Cc2c[nH]c3ccccc23)NC(=O)[C@H](CCCN=C(N)N)NC(=O)[C@@H](Cc2ccccc2)NC(=O)[C@H](CCC(N)=O)NC1=O | false |
| CCCC[C@@H]1NC(=O)CC[C@@H](C(N)=O)NC(=O)[C@H](Cc2c[nH]c3ccccc23)NC(=O)[C@H](CCCN=C(N)N)NC(=O)[C@@H](Cc2ccccc2)NC(=O)[C@H](CC(=O)O)NC1=O | false |
| CCCC[C@@H]1NC(=O)CC[C@@H](C(N)=O)NC(=O)[C@H](Cc2c[nH]c3ccccc23)NC(=O)[C@H](CCCN=C(N)N)NC(=O)[C@@H](Cc2ccc3ccccc3c2)NC(=O)[C@H](CCC(=O)O)NC1=O | false |
| CCCC[C@@H]1NC(=O)CC[C@@H](C(N)=O)NC(=O)[C@H](Cc2c[nH]c3ccccc23)NC(=O)[C@H](CCCN=C(N)N)NC(=O)[C@@H](Cc2ccccc2)NC(=O)[C@H](CCCN=C(N)N)NC1=O | false |
| CCCC[C@@H]1NC(=O)CC[C@@H](C(N)=O)NC(=O)[C@H](Cc2c[nH]c3ccccc23)NC(=O)[C@H](CCCN=C(N)N)NC(=O)[C@@H](Cc2ccccc2)NC(=O)[C@H](Cc2c[nH]cn2)NC1=O | false |
| CCCC[C@@H]1NC(=O)CC[C@@H](C(N)=O)NC(=O)[C@H](Cc2c[nH]c3ccccc23)NC(=O)[C@H](CCCN=C(N)N)NC(=O)[C@@H](Cc2ccc3ccccc3c2)NC(=O)[C@H](CCCC)NC1=O | true |
